Tested on: CMK
Test: CellTox Green cytotoxicity fluorescence relative to DMSO vehicle (fold of vehicle RFU); higher = more cell death (loss of membrane integrity), active = 2 or more
Conditions: 0.1 µM; 48 h
Param threshold (1) applies to CellTox Green cytotoxicity fluorescence; output TRUE when value >= threshold, FALSE when value < threshold.

Exam item: Reported CellTox Green cytotoxicity fluorescence reaches at least 1 for O=C1CCC(N2C(=O)c3ccccc3C2=O)C(=O)N1 (configuration not stated) [Thalidomide] ?
Marked response: FALSE

Exam item: Reported CellTox Green cytotoxicity fluorescence reaches at least 1 for COc1ccc(CCNCc2ccc(OCc3ccc(Cl)nc3)c(OC)c2)cc1OC ?
Marked response: FALSE

Exam item: Reported CellTox Green cytotoxicity fluorescence reaches at least 1 for C[C@H]1Oc2cc(cnc2N)-c2c(nn(C)c2C#N)CN(C)C(=O)c2ccc(F)cc21 ?
Marked response: FALSE

Exam item: Reported CellTox Green cytotoxicity fluorescence reaches at least 1 for CN1CCN(Cc2ccc(Nc3ncc(Cl)c(Nc4ccccc4S(=O)(=O)N(C)C)n3)cc2)CC1 ?
Marked response: TRUE
